assay: PBMC cell counts (total, live, viability; trypan blue, Countess) with and without LPS and test articles (Example 9); format: cell-based, human; conditions: human, PBMCs, PBMC + compound 0.01 uM, no LPS; 24 hr
Where a SMILES comes first, the peptide text is derived from it. [ ]: non-standard residue; d: D form. Hyp = O=C(O)[C@@H]1C[C@@H](O)CN1
quantity: viability at 24 h, 0.01 µM (%)
Give the value, in units of %, as a plain number.

Input CC(C)C[C@H](NC(=O)CNC(=O)[C@H](CC(=O)O)NC(=O)[C@H](CCC(N)=O)NC(=O)CNC(=O)[C@@H]1C[C@@H](O)CN1)C(=O)N[C@@H](C)C(=O)NCC(=O)N1CCC[C@H]1C(=O)N[C@@H](CCCCN)C(=O)O [YY-101] (H-[Hyp]GQDGLAGPK-OH; N-terminus and C-terminus assumed) . Output viability at 24 h, 0.01 µM: 85
